Hello, the source for this data is patent US9156811B2, in case you need it.

- Tested on: MDA-MB-231
- TEST_PROTOCOL: In-vitro antiproliferative assay, MDA-MB-231
- Assay type: cell-based, human
- COND: Homo sapiens, MDA-MB-231; Table 3; 72 h, Alamar blue; read-out: IC50 MDA-MB-231
MEASUREMENT_LABEL: pIC50
To interpret pIC50, take it as minus log10 of a concentration measured in moles per litre.

Data request: Find the recorded pIC50 belonging to Cc1nn(C)c(C)c1N[S+](=O)([O-])c1ccc(-c2cccc(CN3CCN(C)CC3)c2)cc1 and report it.
Data returned: 6.19

----------
- SYSTEM: T. brucei N-myristoyl transferase (Trypanosoma brucei brucei (strain 927/4 GUTat10.1))
- TEST_PROTOCOL: biochemical
- Format: biochemical
- COND: T. brucei NMT; value without parentheses; read-out: IC50 (μM) NMT Enzyme (T. brucei NMT)
MEASUREMENT_LABEL: IC50 (µM)
The answer is to be given in µM; state only the numeric part.

For orientation, consider the following solved cases.
| MOLECULE | MEASUREMENT_LABEL | OBSERVED_VALUE |
| --- | --- | --- |
| Cc1c(N[S+](=O)([O-])c2ccc(-c3cccc(CNCc4ccccc4)c3)cc2)c(CC(C)C)nn1C | IC50 | 1.3 |
| Cc1c(N[S+](=O)([O-])c2ccc(-c3ccc4c(c3)CNCC4)cc2)c(CC(C)C)nn1C | IC50 | 0.004 |
| Cc1c(N[S+](=O)([O-])c2ccc(-c3cccc(CN(C)Cc4cccnc4)c3)cc2)c(CC(C)C)nn1C | IC50 | 0.86 |
| CCCCc1nn(C)c(C)c1N[S+](=O)([O-])c1ccc(Br)cc1 | IC50 | 2.68 |
| Cc1nn(C)c(C)c1N(CC(F)(F)F)[S+](=O)([O-])C1=C(Cl)C=C(CCCN2CCCNCC2)CC1Cl (stereo not shown) | IC50 | 0.008 |

Data request: API: value(readout=IC50, system=T. brucei N-myristoyl transferase (Trypanosoma brucei brucei (strain 927/4 GUTat10.1))) for record Cc1c(N[S+](=O)([O-])c2ccc(CCCCC3CCN(C)CC3)cc2)c(CC(C)C)nn1C
Data returned: 0.01

Data request: API: value(readout=IC50, system=T. brucei N-myristoyl transferase (Trypanosoma brucei brucei (strain 927/4 GUTat10.1))) for record Cc1c(N[S+](=O)([O-])c2ccc(-c3cccc(CN(C)C)c3)c(Cl)c2)c(CC(C)C)nn1C
Data returned: 0.006

----------
- SYSTEM: human NMT-1 (Homo sapiens (Human))
- TEST_PROTOCOL: NMT enzyme inhibition scintillation proximity assay, human NMT-1
- Assay type: biochemical
- COND: HuNMT-1
IC50 values, listed per item
The answer is to be given in µM; state only the numeric part.

For orientation, consider the following solved cases.
| COMPOUND | IC50 / µM |
| --- | --- |
| Cc1nn(C)cc1N[S+](=O)([O-])c1c(Cl)cc(Br)cc1Cl [DDD88324] | 3.36 |
| COc1cc2c(cc1OC)CN(c1ccc([S+](=O)([O-])Nc3c(C)nn(C)c3C)cn1)CC2 [DDD73476] | 2.3 |
| Cc1ccncc1N[S+](=O)([O-])c1c(Cl)cc(-c2ccnc(N3CCNCC3)c2)cc1Cl [DDD88322] | 1.5 |

Now consider the entry below.
Data request: Find the recorded IC50 belonging to CCN(C)Cc1cccc(-c2ccc([S+](=O)([O-])Nc3c(CC(C)C)nn(C)c3C)cc2)c1 [DDD99741] and report it.
Data returned: 0.021

----------
IC50 values, listed per item
- SYSTEM: T. brucei N-myristoyl transferase (Trypanosoma brucei brucei (strain 927/4 GUTat10.1), UniProt Q388H8)
- Sequence (Q388H8 1-446): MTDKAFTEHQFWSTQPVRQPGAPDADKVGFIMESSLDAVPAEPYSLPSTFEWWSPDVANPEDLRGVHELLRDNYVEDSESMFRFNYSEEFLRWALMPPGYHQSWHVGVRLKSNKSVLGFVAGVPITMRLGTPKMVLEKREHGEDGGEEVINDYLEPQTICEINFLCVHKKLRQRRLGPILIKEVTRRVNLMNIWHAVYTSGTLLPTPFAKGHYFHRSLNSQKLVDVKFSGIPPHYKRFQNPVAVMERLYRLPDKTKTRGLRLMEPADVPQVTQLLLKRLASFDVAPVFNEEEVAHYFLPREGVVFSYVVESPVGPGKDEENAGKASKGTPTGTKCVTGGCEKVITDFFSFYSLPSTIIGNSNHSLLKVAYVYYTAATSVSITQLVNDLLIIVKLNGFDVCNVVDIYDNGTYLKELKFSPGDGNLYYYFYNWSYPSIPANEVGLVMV
- TEST_PROTOCOL: biochemical
- Type: biochemical
- COND: value with no enzyme tag in the cell; taken as T. brucei NMT; read-out: IC50 (μM) NMT Enzyme
The answer is to be given in µM; state only the numeric part.

For orientation, consider the following solved cases.
| COMPOUND | MEASUREMENT_LABEL | OBSERVED_VALUE |
| --- | --- | --- |
| Cc1c(N[S+](=O)([O-])c2c(Cl)cc(CCCC3CCN(C)CC3)cc2Cl)c(CC(C)C)nn1C [DDD99743] | IC50 | 0.003 |
| CC(=O)c1cccc(Nc2ccc([S+](=O)([O-])Nc3c(C)nn(C)c3C)cn2)c1 [DDD86311] | IC50 | 1 |
| CNCCNc1cc(-c2cc(Cl)c([S+](=O)([O-])Nc3c(C)nn(C)c3C)c(Cl)c2)ccn1 [DDD86297] | IC50 | 1 |

Data request: Find the recorded IC50 belonging to Cc1ccnc(C)c1N[S+](=O)([O-])c1c(Cl)cc(-c2ccnc(N3CCNCC3)c2)cc1Cl [DDD88319] and report it.
Data returned: 0.045

Data request: Find the recorded IC50 belonging to Cc1ccncc1N[S+](=O)([O-])c1c(Cl)cc(-c2ccnc(N3CCNCC3)c2)cc1Cl [DDD88322] and report it.
Data returned: 0.182

Data request: Find the recorded IC50 belonging to Cc1nn(C)c(C)c1N[S+](=O)([O-])c1ccc(NCCCN2CCN(Cc3ccccc3)CC2)nc1 [DD86299] and report it.
Data returned: 1

Data request: Find the recorded IC50 belonging to Cc1nn(C)c(C)c1NS(=O)(=O)c1c(Cl)cc(-c2ccnc(N3CCC(N(C)C)C3)c2)cc1Cl (stereo not shown) [DDD86292] and report it.
Data returned: 1

Data request: Find the recorded IC50 belonging to Cc1nn(C)c(C)c1N[S+](=O)([O-])c1c(Cl)cc(C#CCN2CCCCC2)cc1Cl [DDD86476] and report it.
Data returned: 5.9

Data request: Find the recorded IC50 belonging to Cc1nn(C)c(C)c1N(C)[S+](=O)([O-])c1ccc(CCCN(C)C)cc1 [DDD99749] and report it.
Data returned: 0.45

Data request: Find the recorded IC50 belonging to Cc1nn(C)c(C)c1N[S+](=O)([O-])c1ccc(NCCN2CCN(C)CC2c2ccccc2)nc1 (stereo not shown) [DDD86304] and report it.
Data returned: 1

----------
- SYSTEM: human NMT-1 (Homo sapiens (Human), UniProt P30419)
- Sequence (P30419 whole entry): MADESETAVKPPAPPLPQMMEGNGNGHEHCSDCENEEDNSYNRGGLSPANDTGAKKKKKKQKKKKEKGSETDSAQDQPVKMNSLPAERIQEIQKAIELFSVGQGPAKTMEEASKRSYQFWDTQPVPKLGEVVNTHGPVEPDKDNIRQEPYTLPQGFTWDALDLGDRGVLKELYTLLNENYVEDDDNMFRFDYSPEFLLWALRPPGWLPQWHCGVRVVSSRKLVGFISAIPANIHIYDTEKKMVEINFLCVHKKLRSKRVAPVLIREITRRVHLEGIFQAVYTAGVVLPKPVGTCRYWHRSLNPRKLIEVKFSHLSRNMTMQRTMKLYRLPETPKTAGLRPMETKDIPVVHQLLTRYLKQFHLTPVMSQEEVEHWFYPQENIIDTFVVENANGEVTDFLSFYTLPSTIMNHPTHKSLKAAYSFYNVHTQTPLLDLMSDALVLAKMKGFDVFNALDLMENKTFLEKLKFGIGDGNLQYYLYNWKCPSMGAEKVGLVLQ
- TEST_PROTOCOL: NMT enzyme inhibition scintillation proximity assay, human NMT-1
- Format: biochemical
- COND: HuNMT-1
IC50 values, listed per item

For orientation, consider the following solved cases.
| SMILES_RECORD | IC50 |
| --- | --- |
| Cc1nn(C)c(C)c1N(C)[S+](=O)([O-])c1ccc(CCCCN(C)C)cc1 | > 10 µM |
| Cc1nn(C)c(C)c1N[S+](=O)([O-])c1cccc(CCCN2CCN(C)CC2)c1 | > 1 µM |
| Cc1nn(C)c(C)c1N(C)[S+](=O)([O-])c1ccc(CCCN(C)C)cc1 | > 1 µM |

Now consider the entry below.
Data request: Find the recorded IC50 belonging to Cc1nn(C)cc1N[S+](=O)([O-])c1ccc(Br)cc1 and report it.
Data returned: > 100 µM

----------
- SYSTEM: T. brucei N-myristoyl transferase (Trypanosoma brucei brucei (strain 927/4 GUTat10.1))
- TEST_PROTOCOL: biochemical
- Type: biochemical
- COND: value printed without enzyme tag in the NMT Enzyme column (taken as T. brucei NMT); read-out: IC50 (μM) NMT Enzyme
MEASUREMENT_LABEL: IC50 (µM)
The answer is to be given in µM; state only the numeric part.

For orientation, consider the following solved cases.
| MOLECULE | SYSTEM | IC50 [µM] |
| --- | --- | --- |
| Cc1nn(C)c(C)c1N[S+](=O)([O-])c1ccc(N2Cc3ccccc3CC2CO)nc1 (stereo not shown) | T. brucei N-myristoyl transferase (Trypanosoma brucei brucei (strain 927/4 GUTat10.1)) | 6 |
| Cc1nn(C)c(C)c1N[S+](=O)([O-])c1ccccc1 | T. brucei N-myristoyl transferase (Trypanosoma brucei brucei (strain 927/4 GUTat10.1)) | 11.8 |
| Cc1nn(C)c(C)c1N[S+](=O)([O-])c1ccc(C#N)cc1 | T. brucei N-myristoyl transferase (Trypanosoma brucei brucei (strain 927/4 GUTat10.1)) | 32.6 |
| COc1ccc([S+](=O)([O-])Nc2c(C)nn(C)c2C)cc1OC | T. brucei N-myristoyl transferase (Trypanosoma brucei brucei (strain 927/4 GUTat10.1)) | 41 |
| Cc1nn(C)c(C)c1N[S+](=O)([O-])c1ccc(NCC(C)c2ccccc2)nc1 (stereo not shown) | T. brucei N-myristoyl transferase (Trypanosoma brucei brucei (strain 927/4 GUTat10.1)) | 0.96 |

Now consider the entry below.
Data request: Find the recorded IC50 belonging to Cc1nn(C)c(C)c1N[S+](=O)([O-])c1ccc(NC2CCc3ccccc32)nc1 (stereo not shown) and report it.
Data returned: 6.6
